- target_under_test: human dopamine D2 receptor (hD2R) (Homo sapiens)
- Sequence (P14416 whole entry): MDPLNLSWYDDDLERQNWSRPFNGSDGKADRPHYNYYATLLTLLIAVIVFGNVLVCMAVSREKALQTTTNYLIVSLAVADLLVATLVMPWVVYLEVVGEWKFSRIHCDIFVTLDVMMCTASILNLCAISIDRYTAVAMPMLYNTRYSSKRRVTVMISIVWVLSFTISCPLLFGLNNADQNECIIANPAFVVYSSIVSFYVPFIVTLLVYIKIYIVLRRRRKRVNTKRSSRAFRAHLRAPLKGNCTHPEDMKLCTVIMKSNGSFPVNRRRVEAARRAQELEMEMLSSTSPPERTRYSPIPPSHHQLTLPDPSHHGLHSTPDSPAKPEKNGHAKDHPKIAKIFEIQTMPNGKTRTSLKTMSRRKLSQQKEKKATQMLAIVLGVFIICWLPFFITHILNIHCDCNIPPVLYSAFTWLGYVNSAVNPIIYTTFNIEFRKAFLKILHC
- experiment_summary: Human D2 receptor binding assay ([^3H]-Spiperone)
- experimental_context: CHO cells expressing hD2R, geometric mean of 2-5 determinations unless marked b (single determination)
property: pKi
pKi (log units): -log10 of the concentration in mol/L.

Endpoint output: pKi of COc1nc2c(cc1NS(=O)(=O)c1ccc([C@@H]3CCCCO3)c(F)c1)CCN(C)CC2 . Value?
7.00

Consider next the compound CCN1CCc2cc(NS(=O)(=O)c3cnc(OC4CCCC4)c(C)c3)c(OC)nc2CC1 in the same way.
8.39

Okay, and CCOC1CC(c2ccc(S(=O)(=O)Nc3cc4c(nc3OC)CCN(CC)CC4)cc2)C1 (centres unmarked) ?
7.40

And COc1nc2c(cc1NS(=O)(=O)c1ccc(C3(C)CCOCC3)cc1)CCN(C)CC2 ?
6.39

Follow-up entry: COc1nc2c(cc1NS(=O)(=O)c1ccc(C3CCOC(C)C3)cc1)CCN(C)CC2 (single isomer, unassigned) [Example 85]
6.52

Thanks! And COc1nc2c(cc1NS(=O)(=O)c1ccc([C@@H]3CCCCO3)cc1)CCN(C)CC2 ?
6.74

Next: COc1nc2c(cc1NS(=O)(=O)c1ccc(C3(F)CCCC3)nc1)CCN(C)CC2
6.97

Ok, now CCCc1ccc(S(=O)(=O)Nc2cc3c(nc2OC)CCN(C)CC3)cc1
8.27
